Biological target: MAGL (Mus musculus)
Construct: Proteomes (mouse brain membrane fraction or cell lysates); from tissue; host or cells: mouse brain membrane fraction (or cell lysates, not specified)
Sequence (O35678 whole entry): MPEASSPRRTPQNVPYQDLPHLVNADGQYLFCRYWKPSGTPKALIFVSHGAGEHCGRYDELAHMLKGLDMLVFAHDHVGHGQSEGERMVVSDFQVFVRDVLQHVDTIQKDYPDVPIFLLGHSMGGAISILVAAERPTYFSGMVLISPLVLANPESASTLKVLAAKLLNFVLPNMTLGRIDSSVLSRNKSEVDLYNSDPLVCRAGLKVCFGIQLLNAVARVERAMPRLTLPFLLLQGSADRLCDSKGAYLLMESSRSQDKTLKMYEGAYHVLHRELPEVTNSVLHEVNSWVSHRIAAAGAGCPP
Assay: In vitro competitive activity-based protein profiling (gel-based, FP-Rh or HT-01 probe)
Assay type: biochemical
Conditions: 1 μM inhibitor; gel-based competitive ABPP
readout: inhibition at 1 µM

Tell me measured inhibition at 1 µM for O=C(c1cnn(C(=O)N2CCN(Cc3ccc(-c4ccccc4)cc3Cl)CC2)c1)N1CCCC1 please.
> 75%

Please list inhibition at 1 µM recorded for the compound O=C(N1CCN(Cc2ccccc2Cl)CC1)n1cc(C(F)(F)F)cn1
> 75%

Name the recorded inhibition at 1 µM of the compound listed here: CCN(Cc1ccc(N2CCOCC2)cc1)C(=O)n1cc(Cl)cn1
25 to 75%

# return recorded inhibition at 1 µM for input O=C(N1CCN(Cc2cccc(N3CCOCC3)c2)CC1)n1cc(C(F)(F)F)cn1
> 75%

Using the record for CCN(Cc1ccc(C)cc1)C(=O)n1cc(C)cn1 , state its measured inhibition at 1 µM.
< 25%

Output inhibition at 1 µM of CNC(=O)c1cnn(C(=O)N2CCN(Cc3cccc(Oc4ccccc4)c3)CC2)c1
> 75%

Fill in reported inhibition at 1 µM for this entry: CCN(Cc1ccc(C)cc1)C(=O)n1cc(C(F)(F)F)cn1
25 to 75%

Indicate its recorded inhibition at 1 µM; the compound in question is O=C(O)c1cnn(C(=O)N2CCN(Cc3ccc(Cl)cc3)CC2)c1
< 25%

Write down inhibition at 1 µM measured for item N#Cc1cnn(C(=O)N2CCCN(Cc3cccc(Oc4ccccc4)c3)CC2)c1
> 75%

// fetch inhibition at 1 µM given entry CCN(Cc1ccc(Cl)cc1)C(=O)n1cc(C)cn1
< 25%

For the compound Cc1cnn(C(=O)N2CCN(Cc3cccc(Oc4ccccc4)c3)CC2)c1 , give its measured inhibition at 1 µM value.
> 75%
